test system: MV4-11; experiment: Antiproliferative activity against wild type human MV4-11 cells assessed as reduction in cell viability measured after 3 days by ATP-dependent luminescence assay; format: functional, cell-based; conditions: MV4-11, 72 h
pEC50: −log10 of the molar value.
Listing of recorded pEC50 by entry.

COMPOUND | MODIFIER | pEC50
CC(C)CCOc1ccccc1OCCNS(=O)(=O)Nc1ccc2c(c1)CN(C1CCC(=O)NC1=O)C2=O (stereo not given) | = | 7.40
CCCOc1ccccc1CNS(=O)(=O)Nc1ccc2c(c1)CN(C1CCC(=O)NC1=O)C2=O (stereo not given) | = | 7.10
Cc1cccc(Cl)c1OCCNS(=O)(=O)Nc1ccc2c(c1)CN(C1CCC(=O)NC1=O)C2=O (stereo not given) | = | 6.72
Cc1ccc(NC(=O)NCc2ccc3c(c2)CN(C2CCC(=O)NC2=O)C3=O)cc1Cl (stereo not given) | > | 9.00
CCC(C)(CCNS(=O)(=O)Nc1ccc2c(c1)CN(C1CCC(=O)NC1=O)C2=O)c1ccccc1OC (stereo not given) | = | 6.39

---

molecular target: Protein cereblon/Eukaryotic peptide chain release factor GTP-binding subunit ERF3A (Homo sapiens, UniProt Q96SW2+P15170); test: Molecular glue activity at CRBN/GSPT1 in human BE2C cells harboring GSPT1 G575N mutant assessed as induction of GSPT1 degradation at 3 uM measured after 3 hrs by immunoblot analysis; assay type: cell-based
Sequence (P15170 whole entry, looked up): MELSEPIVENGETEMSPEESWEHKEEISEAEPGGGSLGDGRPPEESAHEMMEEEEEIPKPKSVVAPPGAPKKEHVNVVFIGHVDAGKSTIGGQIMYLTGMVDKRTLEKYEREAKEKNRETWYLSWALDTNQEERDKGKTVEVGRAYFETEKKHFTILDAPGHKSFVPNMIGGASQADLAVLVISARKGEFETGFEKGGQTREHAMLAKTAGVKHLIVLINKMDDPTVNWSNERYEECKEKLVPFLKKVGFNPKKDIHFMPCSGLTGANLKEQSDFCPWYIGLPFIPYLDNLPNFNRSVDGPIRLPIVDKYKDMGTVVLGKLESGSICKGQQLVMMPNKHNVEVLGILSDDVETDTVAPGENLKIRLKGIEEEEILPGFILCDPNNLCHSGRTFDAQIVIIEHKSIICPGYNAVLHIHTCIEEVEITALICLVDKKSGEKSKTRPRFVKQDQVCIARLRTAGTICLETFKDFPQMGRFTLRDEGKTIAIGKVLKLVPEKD
Sequence (Q96SW2 whole entry, looked up): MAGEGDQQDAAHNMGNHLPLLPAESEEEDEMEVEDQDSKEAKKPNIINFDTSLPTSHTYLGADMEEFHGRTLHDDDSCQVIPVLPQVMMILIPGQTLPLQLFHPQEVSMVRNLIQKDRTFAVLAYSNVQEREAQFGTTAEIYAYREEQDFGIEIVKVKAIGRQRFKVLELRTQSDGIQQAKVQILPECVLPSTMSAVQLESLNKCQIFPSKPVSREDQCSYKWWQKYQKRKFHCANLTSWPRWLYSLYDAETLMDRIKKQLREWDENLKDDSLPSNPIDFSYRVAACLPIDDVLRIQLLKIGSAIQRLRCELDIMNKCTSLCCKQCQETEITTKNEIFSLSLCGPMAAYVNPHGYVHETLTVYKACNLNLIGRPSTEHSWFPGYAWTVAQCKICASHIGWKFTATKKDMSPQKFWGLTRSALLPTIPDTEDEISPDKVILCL
The source made the active and inactive calls. No cut-off for these calls is given here.
ATTRIBUTE_MEASURED: Activity

COMPOUND | RESULT
CC(C)CCOc1ccccc1OCCNS(=O)(=O)Nc1ccc2c(c1)CN(C1CCC(=O)NC1=O)C2=O (centres undefined) | inactive
CCCOc1ccccc1CNS(=O)(=O)Nc1ccc2c(c1)CN(C1CCC(=O)NC1=O)C2=O (centres undefined) | inactive
CCC(C)(CCNS(=O)(=O)Nc1ccc2c(c1)CN(C1CCC(=O)NC1=O)C2=O)c1ccccc1OC (centres undefined) | inactive
Cc1cccc(Cl)c1OCCNS(=O)(=O)Nc1ccc2c(c1)CN(C1CCC(=O)NC1=O)C2=O (centres undefined) | inactive

---

Listing of recorded Ratio EC50 by entry.
assay: Selectivity index, ratio of EC50 for antiproliferative activity against human BE2C cells to EC50 for antiproliferative activity against human MOLT-4 cells; assay type: functional

COMPOUND | Ratio EC50
CCCOc1ccccc1CNS(=O)(=O)Nc1ccc2c(c1)CN(C1CCC(=O)NC1=O)C2=O (centres undefined) | ~100
Cc1cccc(Cl)c1OCCNS(=O)(=O)Nc1ccc2c(c1)CN(C1CCC(=O)NC1=O)C2=O (centres undefined) | ~100
CCC(C)(CCNS(=O)(=O)Nc1ccc2c(c1)CN(C1CCC(=O)NC1=O)C2=O)c1ccccc1OC (centres undefined) | ~100
CC(C)CCOc1ccccc1OCCNS(=O)(=O)Nc1ccc2c(c1)CN(C1CCC(=O)NC1=O)C2=O (centres undefined) | ~100
